test: qHTS of pediatric cancer cell lines to identify multiple opportunities for drug repurposing: Primary screen for DAOY cells (AID 1347090); conditions: DAOY medulloblastoma viability, CellTiter-Glo luminescence, 48 h; series mostly up to 46 µM; also: nearly all actives have a fitted effect of over 55% in size
Inconclusive results are not listed. Active and inactive are the calls of the source. Calls follow the shape of the dose curve; as a rule, active = well fitted cell-killing curve with a large enough effect; inconclusive = small, poorly fitted or top-dose-only effect; inactive = flat fitted curve, though single readings scatter.
reported-property: outcome

O=c1[nH]c2ccccc2n1C1CCNCC1: inactive
O=C1c2ccccc2C(=O)c2ccccc21: inactive
CCN[C@@H](C)Cc1cccc(C(F)(F)F)c1: inactive

----------
test system: astro; test: Drug repurposing screens with cells derived from glioblastoma tumor samples (AID 1345199); conditions: viability, ATP luminescence, 48 h; series mostly up to 45.9 µM; also: nearly all actives have a fitted effect of over 40% in size
Results filed as inconclusive are left out. Calls of active or inactive are those of the source. Calls follow the shape of the dose curve; as a rule, active = well fitted inhibition curve with a large enough effect; inconclusive = small, poorly fitted or top-dose-only effect; inactive = flat fitted curve, though single readings scatter.
Outcome (select one): TRUE = active, FALSE = inactive

Each compound tested received a call. Report the one for C[C@@H](N)[C@@H](O)c1ccccc1 . FALSE

Thanks! And COc1cc(OC)c(OC)cc1C=O ? FALSE

Now give it for O=C1CN=C(c2ccccc2)c2cc([N+](=O)[O-])ccc2N1 too. FALSE

Now the compound COP(=S)(OC)Oc1ccc(S(=O)(=O)N(C)C)cc1 FALSE

Now this one: CC(C)N(CCC(C(N)=O)(c1ccccc1)c1ccccn1)C(C)C (configuration not stated) FALSE

Also check CN=C1CN(O)C(c2ccccc2)=c2cc(Cl)ccc2=N1 FALSE

One more compound: CC(C)(C)NCC(O)c1ccccc1Cl (configuration not stated) FALSE

Try this compound too: O=P1(N(CCCl)CCCl)NCCCO1 (configuration not stated) FALSE

Do the same for COC(=O)C(c1ccccc1)C1CCCCN1 (configuration not stated) please FALSE

Consider next the compound CN[C@@H](C)Cc1ccccc1 in the same way. FALSE

Now consider CCCCCCCCCC(=O)O[C@H]1CC[C@H]2[C@@H]3CCC4=CC(=O)CC[C@@H]4[C@H]3CC[C@]12C and answer again. FALSE

Moving on to CN1C[C@H](C(=O)N[C@]2(C)O[C@@]3(O)[C@@H]4CCCN4C(=O)[C@H](Cc4ccccc4)N3C2=O)C=C2c3cccc4[nH]cc(c34)C[C@H]21 FALSE

CCOP(=S)(OCC)Oc1ccc2c(C)c(Cl)c(=O)oc2c1 ? FALSE

Request: [N-]=[N+]=CC(=O)OC[C@H](N)C(=O)O FALSE

What would you report for CN1CCC(O)(c2ccc(F)cc2)C(C(=O)c2ccc(F)cc2)C1 (configuration not stated) ? FALSE

Then what about the compound NC(=O)c1cc([N+](=O)[O-])cc([N+](=O)[O-])c1 ? FALSE

Cool, now Oc1ccc(Cl)cc1 FALSE

Same question, CCC(C)(C)c1ccc(O)cc1 this time FALSE

Request: Clc1ccc(C(c2ccc(Cl)cc2)C(Cl)(Cl)Cl)cc1 FALSE

Another compound to check: CN1C(=O)CCS(=O)(=O)C1c1ccc(Cl)cc1 (configuration not stated) FALSE

And what about the compound CNCC(=O)c1ccc(O)c(O)c1 ? FALSE

Try the compound COc1ccc2c(c1OC)C(=O)O[C@H]2[C@@H]1c2cc3c(cc2CCN1C)OCO3 FALSE

Next record, please: CCN(CC)C(=O)[C@@H]1C=C2c3cccc4[nH]cc(c34)C[C@H]2N(C)C1 FALSE

// repeat for C[C@]12CC[C@@H]3c4ccc(OC(=O)N(CCCl)CCCl)cc4CC[C@H]3[C@@H]1CC[C@@H]2OP(=O)(O)O and report TRUE

Queued: Nc1ccccc1 FALSE

Continue with COc1ccc2c3c1O[C@H]1[C@H](O)CC[C@H]4[C@@H](C2)N(C)CC[C@@]341 FALSE

Check O=C1c2ccccc2C(=O)c2ccccc21 too. FALSE

Next: CCCC(C)(COC(N)=O)COC(N)=O FALSE

Next: O=C(O)CCCc1ccc(N(CCCl)CCCl)cc1 FALSE

Same for CCOC(=O)CC(SP(=S)(OC)OC)C(=O)OCC (configuration not stated) FALSE

Clc1ccc2c(c1)C(c1ccccc1)=NCc1nncn1-2 , same question. FALSE

// repeat for CN(C)CCc1c[nH]c2cccc(OP(=O)(O)O)c12 and report FALSE

Continue with C#C[C@]1(O)CC[C@H]2[C@@H]3CCC4=CC(=O)CC[C@]4(C)[C@H]3CC[C@@]21C FALSE

What about CCN[C@H](C)Cc1cccc(C(F)(F)F)c1 ? FALSE

And then C[C@]1(O)CC[C@H]2[C@@H]3CCC4=CC(=O)CC[C@]4(C)[C@@]3(F)[C@@H](O)C[C@@]21C , what is it? FALSE

Consider next the compound O=C1OC(c2ccc(O)c(S(=O)(=O)O)c2)(c2ccc(O)c(S(=O)(=O)O)c2)c2c(Br)c(Br)c(Br)c(Br)c21 in the same way. FALSE

Param item: Nc1nc(N)nc(NC2CC2)n1 FALSE

Cool, now CN1C(=O)CC(=O)N(c2ccccc2)c2cc(Cl)ccc21 FALSE

Consider next the compound O=C(N/N=C/c1ccc([N+](=O)[O-])o1)c1cc([N+](=O)[O-])cc([N+](=O)[O-])c1O in the same way. FALSE

What would you report for CC(C)C[C@H](CN)CC(=O)O ? FALSE

And then COP(=S)(OC)Oc1cc(Cl)c(Cl)cc1Cl , what is it? FALSE

What do you get for CCCCCCC(=O)CCCCCC/C=C/C[C@@H](O)[C@H](O)[C@@](N)(CO)C(=O)O ? FALSE

Thanks! And c1ccc(CN2CCNCC2)cc1 ? FALSE

Another compound to check: COc1cccc([C@@]2(O)CCCC[C@@H]2CN(C)C)c1 FALSE

How about this compound: O=C(CCCN1CCC2(CC1)C(=O)NCN2c1ccccc1)c1ccc(F)cc1 FALSE

What do you get for COC1CC(=C(c2cccs2)c2cccs2)C[N+](C)(C)C1 (configuration not stated) ? FALSE

Now the compound CCN[C@@H](C)Cc1ccccc1 FALSE

All figures here come from PubChem BioAssay (NCATS).
